Hello, the source for this data is patent US12662489B2, in case you need it.

Readings of IC50 for the listed compounds
Molecular target: MTHFD2 recombinant human enzyme (Homo sapiens, UniProt P13995)
Experiment: MTHFD2 inhibition assay (NAD(P)H-Glo luminescence)
measurementLabel: IC50

| compound | measurementLabel | reportedResult |
| --- | --- | --- |
| COC[C@H]1CN(c2cc(C)c3c4c(c(=O)oc3c2C)CN(C(=O)c2ccc(C(=O)NS(=O)(=O)N3CCCC3)c(N3CC5CCC3C5)c2)CC4)CCN1C (some centres unmarked) | IC50 | 10 to 100 nM |
| COC[C@H]1CN(c2cc(C)c3c4c(c(=O)oc3c2C)CN(C(=O)c2cc(OC3CC3)c(C(=O)NS(=O)(=O)N3C5CCC3CC5)cc2F)CC4)CCN1C | IC50 | 1 to 10 nM |
| COC[C@H]1CN(c2cc(C)c3c4c(c(=O)oc3c2C)CN(C(=O)c2cc(N(C)C)c(C(=O)NS(=O)(=O)N3CCC[C@@H](OC)C3)cc2F)CC4)CCN1C | IC50 | 10 to 100 nM |
| COC[C@H]1CN(c2ccc3c4c(c(=O)oc3c2C)CN(C(=O)c2cc(N(C)C)c(C(=O)NS(=O)(=O)N3CCC5(CC3)CC5)cc2F)CC4)CCN1C | IC50 | 100 to 1000 nM |
| CCc1c(C(=O)NS(=O)(=O)N2C3CCC2CC3)ccc(C(=O)N2CCc3c(c(=O)oc4c(C)c(N5CCN(C)[C@@H](COC)C5)cc(C)c34)C2)c1F | IC50 | 10 to 100 nM |

----------
Target: MTHFD2 recombinant human enzyme (Homo sapiens, UniProt P13995)
Sequence (P13995 36-350): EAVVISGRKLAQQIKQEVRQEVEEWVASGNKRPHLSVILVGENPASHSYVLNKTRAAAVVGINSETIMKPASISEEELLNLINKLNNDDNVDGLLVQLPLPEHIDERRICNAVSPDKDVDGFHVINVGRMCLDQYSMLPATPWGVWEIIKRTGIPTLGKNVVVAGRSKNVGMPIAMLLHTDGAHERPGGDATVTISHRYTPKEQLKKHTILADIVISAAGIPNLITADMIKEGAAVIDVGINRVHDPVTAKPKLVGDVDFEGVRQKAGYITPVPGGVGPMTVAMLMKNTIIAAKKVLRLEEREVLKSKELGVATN
Experiment: MTHFD2 inhibition assay (NAD(P)H-Glo luminescence)
pIC50: −log10 of the molar value.
Measured pIC50, listed per entry.
measurementLabel: pIC50

| smi | reportedResult |
| --- | --- |
| CCOc1c(C(=O)NS(=O)(=O)N(C2CC2)C2CC2)ccc(C(=O)N2CCc3c(c(=O)oc4c(C)c(N5CCN(C)[C@@H](COC)C5)cc(C)c34)C2)c1F | 7.00 to 8.00 |
| CCOc1c(C(=O)NS(=O)(=O)N2C3CCCC2CC3)ccc(C(=O)N2CCc3c(c(=O)oc4c(C)c(N5CCN(C)[C@@H](COC)C5)ccc34)C2)c1F | 7.00 to 8.00 |
| CCOc1cc(C(=O)N2CCc3c(c(=O)oc4c(C)c(N5CCN(C)[C@@H](COC)C5)cc(C)c34)C2)ccc1C(=O)NS(=O)(=O)N1C2CCC1CC2 | 8.00 to 9.00 |
| COC[C@H]1CN(c2cc(Cl)c3c4c(c(=O)oc3c2C)CN(C(=O)c2cc(N(C)C)c(C(=O)NS(=O)(=O)N3CC[C@H](F)C3)cc2F)CC4)CCN1C | 7.00 to 8.00 |
| COC[C@H]1CN(c2cc(C)c3c4c(c(=O)oc3c2C)CN(C(=O)c2ccc(C(=O)NS(=O)(=O)C3(C)CC3)c(N3CCC(C)(C)C3)c2)CC4)CCN1C | 8.00 to 9.00 |
| COC[C@H]1CN(c2cc(Cl)c3c4c(c(=O)oc3c2C)CN(C(=O)c2cc(N(C)C)c(C(=O)NS(=O)(=O)N3CC[C@H](OC)C3)cc2F)CC4)CCN1C | 7.00 to 8.00 |
| COC[C@H]1CN(c2cc(C)c3c4c(c(=O)oc3c2C)CN(C(=O)c2ccc(C(=O)NS(=O)(=O)N(C)C)c(N3C5CCC3CC5)c2)CC4)CCN1C | 8.00 to 9.00 |
| COC[C@H]1CN(c2cc(C)c3c4c(c(=O)oc3c2C)CN(C(=O)c2ccc(C(=O)NS(=O)(=O)N(C)C)c(OC3CCC3)c2F)CC4)CCN1C | 8.00 to 9.00 |
| COC[C@H]1CN(c2cc(Cl)c3c4c(c(=O)oc3c2C)CN(C(=O)c2cc(OC)c(C(=O)NS(=O)(=O)N(C3CC3)C3CC3)cc2F)CC4)CCN1C | 7.00 to 8.00 |
| COC[C@H]1CN(c2cc(C)c3c4c(c(=O)oc3c2C)CN(C(=O)c2cc(N(C)C)c(C(=O)NS(=O)(=O)C3(C)CC3)cc2F)CC4)CCN1C | 8.00 to 9.00 |
| COC[C@H]1CN(c2ccc3c4c(c(=O)oc3c2C)CN(C(=O)c2ccc(C(=O)NS(=O)(=O)C3(C)CC3)c(OC3CCCC3)c2F)CC4)CCN1C | 7.00 to 8.00 |
